Origin of the recorded values: patent US20230021388A1

List of EC50 (read off the curve) values.
# system_under_test: T1, human ROR1 on live cells (human, UniProt Q01973 30-937)
# T1 construct: ROR1-transfected MEC cells (~56,000 copies/cell) or JeKo-1 cells (~13,000 copies/cell); the cell line is named under assay; also called ROR1-transfected MEC cells; JeKo-1 cells
# protocol_description: flow cytometry on live JeKo-1 cells, Fab detected with anti-HA-PE
reported_property: EC50 (read off the curve)

binder: Ab1 Fab variant H1 T32A + L1 A25P + L2 L70K (Fab, V domains shown, Fab) VH: QVQLQESGPGLVKPSQTLSLTCTVSGYAFAAYNIHWVRQAPGQGLEWMGSFDPYDGGSSYNQKFKDRLTISKDTSKNQVVLTMTNMDPVDTATYYCARGWYYFDYWGHGTLVTVSS VL: DIVMTQTPLSLPVTPGEPASISCRPSKSISKYLAWYQQKPGQAPRLLIYSGSTKQSGIPPRFSGSGYGTDFTLTINNIESEDAAYYFCQQHDESPYTFGEGTKVEIK
reported_property: EC50 (read off the curve)
endpoint_result: ~1 nM

binder: Ab1 Fab variant H1 T32A + L2 T69R (Fab, V domains shown, Fab) VH: QVQLQESGPGLVKPSQTLSLTCTVSGYAFAAYNIHWVRQAPGQGLEWMGSFDPYDGGSSYNQKFKDRLTISKDTSKNQVVLTMTNMDPVDTATYYCARGWYYFDYWGHGTLVTVSS VL: DIVMTQTPLSLPVTPGEPASISCRASKSISKYLAWYQQKPGQAPRLLIYSGSRLQSGIPPRFSGSGYGTDFTLTINNIESEDAAYYFCQQHDESPYTFGEGTKVEIK
reported_property: EC50 (read off the curve)
endpoint_result: ~2 nM

binder: Ab1 Fab variant H1 T32A + L1 A25P + L2 T69R (Fab, V domains shown, Fab) VH: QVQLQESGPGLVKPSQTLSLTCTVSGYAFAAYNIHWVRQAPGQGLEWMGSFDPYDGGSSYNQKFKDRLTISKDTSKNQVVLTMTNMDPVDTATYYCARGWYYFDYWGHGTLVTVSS VL: DIVMTQTPLSLPVTPGEPASISCRPSKSISKYLAWYQQKPGQAPRLLIYSGSRLQSGIPPRFSGSGYGTDFTLTINNIESEDAAYYFCQQHDESPYTFGEGTKVEIK
reported_property: EC50 (read off the curve)
endpoint_result: ~1 nM

binder: Ab1 Fab variant H1 T32A + L1 K29S (Fab, V domains shown, Fab) VH: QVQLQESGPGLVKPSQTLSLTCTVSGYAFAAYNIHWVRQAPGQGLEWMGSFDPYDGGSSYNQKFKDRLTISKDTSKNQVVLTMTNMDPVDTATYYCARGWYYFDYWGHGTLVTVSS VL: DIVMTQTPLSLPVTPGEPASISCRASSSISKYLAWYQQKPGQAPRLLIYSGSTLQSGIPPRFSGSGYGTDFTLTINNIESEDAAYYFCQQHDESPYTFGEGTKVEIK
reported_property: EC50 (read off the curve)
endpoint_result: ~2 nM
